# reported EC50; entries follow
Biological target: T1, recombinant human BAFF-Fc (Sino Biological) (human, UniProt Q9Y275 134-285)
T1 construct: Bought reagent; also called hBAFF; not shown: Fc moiety detected by anti-human Fc
T1 sequence (Q9Y275 134-285): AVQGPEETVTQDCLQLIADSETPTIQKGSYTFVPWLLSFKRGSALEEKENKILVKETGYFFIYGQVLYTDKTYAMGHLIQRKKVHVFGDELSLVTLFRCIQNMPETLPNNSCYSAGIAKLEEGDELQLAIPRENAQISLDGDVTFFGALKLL
Experiment: ELISA, purified monomeric VNAR on coated BAFF-Fc, anti-FLAG detection

In the examples that follow, each entry is paired with its recorded EC50.
>  <binder>
ID2-101A07 (VNAR, Nurse shark VNAR single domain, tested as monomer) VNAR: AARVDQTPQTITKETGESLTINCVLRDSNCALSNLYWYRKKSGSTNEESISLGGRYVETVNSGSKSFSLRINDLTVEDSGTYRCKVQLPYDPLTKECILGRMDVYGDGTAVTVNA

>  <observed>
0.5 nM

$$$$
>  <binder>
ID2-101C01 (VNAR, Nurse shark VNAR single domain, monomer) VNAR: AARVDQTPQTITKETGESLTINCVLRDNNCALSTTYWYRKKSGSTNEENISKGGRYVETVNSGSKSFSLRINDLTVEDSGTYRCKVRLDLLLCRNGSTNSIDVYGGGTAVTVNA

>  <observed>
2.13 nM

$$$$
>  <binder>
ID2-101A12 (VNAR, Nurse shark VNAR single domain, monomer) VNAR: AARVDQTPQTVTKETGESLTINCVLRDASYALGSTCWYRKKSGSRNEESISKGGRYVETVNSGSKSFSLRINDLTVEDSGTYRCKVRDPLLFPRDRCDGESKDVYGGGTVVTVNA

>  <observed>
4.57 nM

$$$$

Okay, next one:
Task: For the binder shown here, ID2-101A05 (VNAR, Nurse shark VNAR single domain, tested as monomer) VNAR: AARVDQTPQTITKETGESLTINCVLRDNNCALSTTYWYRKKSGSTNEENISKGGRYVETVNSGSKSFSLRINDLTVEDSGTYRCKVSKDWLLCRDRGRRETDVYGDGTAVTVNA , give the reported EC50.
Output: 1.5 nM
